Assay: In vitro dissociation in blood plasma of rabbit
Format: in vitro ADME, New Zealand white rabbits
Conditions: fresh New Zealand white rabbit plasma, 37° C., 2 min
recorded metric: Sampling time/Dissociation percent (%) 2 min

{"compound": "CC(=O)O[C@@]12CO[C@@H]1C[C@H](O)[C@@]1(C)C(=O)[C@H](O)C3=C(C)[C@@H](OC(=O)[C@H](OC(=O)[C@@H](F)CCN(C)C)[C@@H](NC(=O)OC(C)(C)C)c4ccccc4)C[C@@](O)([C@@H](OC(=O)c4ccccc4)[C@H]21)C3(C)C.Cl", "value": 79.3}
{"compound": "CO[C@H]1C(=O)[C@]2(C)[C@@H](OC)C[C@H]3OC[C@@]3(OC(C)=O)[C@H]2[C@H](OC(=O)c2ccccc2)[C@]2(O)C[C@H](OC(=O)[C@H](OC(=O)[C@H](F)CCN(C)C)[C@@H](NC(=O)OC(C)(C)C)c3ccccc3)C(C)=C1C2(C)C.CS(=O)(=O)O", "value": 78.4}
{"compound": "CCN(CC)CC[C@](C)(C(=O)O[C@@H](C(=O)O[C@H]1C[C@@]2(O)[C@@H](OC(=O)c3ccccc3)[C@@H]3[C@]4(OC(C)=O)CO[C@@H]4C[C@H](OC)[C@@]3(C)C(=O)[C@H](OC)C(=C1C)C2(C)C)[C@@H](NC(=O)OC(C)(C)C)c1ccccc1)C(F)(F)F.CS(=O)(=O)O", "value": 56.2}
{"compound": "CC(=O)OC12COC1CC(O)C1(C)C(=O)C(O)C3=C(C)C(OC(=O)C(OC(=O)C(F)CCN(C)C)C(NC(=O)OC(C)(C)C)c4ccccc4)CC(O)(C(OC(=O)c4ccccc4)C21)C3(C)C.Cl (stereo not shown)", "value": 80.2}

====

System: human prostate cancer PC-3
Experiment: Inhibitory activity of docetaxel derivatives on subcutaneously xenografted tumor PC-3 in nude mice
Type: in vivo
Settings: D20; 33.6 mg/kg, D0 IV; PC-3 xenograft in nude mice
Below, each of the molecules is paired with its reported Tumor volume (mm^3) (D20) value.

{"molecule": "CC(=O)O[C@@]12CO[C@@H]1C[C@H](O)[C@@]1(C)C(=O)[C@H](O)C3=C(C)[C@@H](OC(=O)[C@H](OC(=O)[C@H](F)CCN(C)C(C)C)[C@@H](NC(=O)OC(C)(C)C)c4ccccc4)C[C@@](O)([C@@H](OC(=O)c4ccccc4)[C@H]21)C3(C)C.Cl", "measure unit": "mm^3", "Tumor volume (mm^3) (D20)": 35.3}
{"molecule": "CCN(C)CCC(F)C(=O)OC(C(=O)OC1CC2(O)C(OC(=O)c3ccccc3)C3C4(OC(C)=O)COC4CC(O)C3(C)C(=O)C(O)C(=C1C)C2(C)C)C(NC(=O)OC(C)(C)C)c1ccccc1.CS(=O)(=O)O (stereo not shown)", "measure unit": "mm^3", "Tumor volume (mm^3) (D20)": 30.4}
{"molecule": "CC(=O)O[C@@]12CO[C@@H]1C[C@H](O)[C@@]1(C)C(=O)[C@H](O)C3=C(C)[C@@H](OC(=O)[C@H](OC(=O)C(CCN(C)C)C(F)F)[C@@H](NC(=O)OC(C)(C)C)c4ccccc4)C[C@@](O)([C@@H](OC(=O)c4ccccc4)[C@H]21)C3(C)C.Cl (stereo partly shown)", "measure unit": "mm^3", "Tumor volume (mm^3) (D20)": 36.8}
{"molecule": "CC(=O)O[C@@]12CO[C@@H]1C[C@H](O)[C@@]1(C)C(=O)[C@H](O)C3=C(C)[C@@H](OC(=O)[C@H](OC(=O)[C@@H](F)CCN(C)C)[C@@H](NC(=O)OC(C)(C)C)c4ccccc4)C[C@@](O)([C@@H](OC(=O)c4ccccc4)[C@H]21)C3(C)C.CS(=O)(=O)O", "measure unit": "mm^3", "Tumor volume (mm^3) (D20)": 26.8}

====

Test: In vitro dissociation in blood plasma of rat
Type: in vitro ADME, SD rats
Conditions: fresh SD rat plasma, 37° C., 2 min incubation
recorded metric: Sampling time/Dissociation percent (%) 2 min

{"molecule": "COC1C(=O)C2(C)C(OC)CC3OCC3(OC(C)=O)C2C(OC(=O)c2ccccc2)C2(O)CC(OC(=O)C(OC(=O)C(CCN)C(F)F)C(NC(=O)OC(C)(C)C)c3ccccc3)C(C)=C1C2(C)C.O=S(=O)([O-])O.[Na+] (centres unmarked)", "measure unit": "%", "value": 45.2}
{"molecule": "CC(=O)O[C@H]1C(=O)[C@@]2(C)[C@H]([C@H](OC(=O)c3ccccc3)[C@]3(O)C[C@H](OC(=O)[C@H](OC(=O)[C@H](F)CCN(C)C)[C@@H](NC(=O)c4ccccc4)c4ccccc4)C(C)=C1C3(C)C)[C@]1(OC(C)=O)CO[C@@H]1C[C@@H]2O.Cl", "measure unit": "%", "value": 63.5}
{"molecule": "CO[C@H]1C(=O)[C@]2(C)[C@@H](OC)C[C@H]3OC[C@@]3(OC(C)=O)[C@H]2[C@H](OC(=O)c2ccccc2)[C@]2(O)C[C@H](OC(=O)[C@H](OC(=O)[C@@H](F)CCN(C)C)[C@@H](NC(=O)OC(C)(C)C)c3ccccc3)C(C)=C1C2(C)C.Cl", "measure unit": "%", "value": 47.6}
{"molecule": "CC(=O)OC1C(=O)C23CC2CC2OCC2(OC(C)=O)C3C(OC(=O)c2ccccc2)C2(O)CC(OC(=O)C(OC(=O)C(F)CC(C)N(C)C)C(NC(=O)OC(C)(C)C)c3ccccc3)C(C)=C1C2(C)C.CS(=O)(=O)O (centres unmarked)", "measure unit": "%", "value": 60.2}
{"molecule": "CC(=O)O[C@H]1C(=O)[C@@]2(C)[C@H]([C@H](OC(=O)c3ccccc3)[C@]3(O)C[C@H](OC(=O)[C@H](OC(=O)C(F)CCN(C)C)[C@@H](NC(=O)c4ccccc4)c4ccccc4)C(C)=C1C3(C)C)[C@]1(OC(C)=O)CO[C@@H]1C[C@@H]2O.Cl (some centres unmarked)", "measure unit": "%", "value": 61.8}
{"molecule": "CC(=O)O[C@@]12CO[C@@H]1C[C@H](O)[C@@]1(C)C(=O)[C@H](O)C3=C(C)[C@@H](OC(=O)[C@H](OC(=O)C(F)CCN(C)C)[C@@H](NC(=O)OC(C)(C)C)c4ccccc4)C[C@@](O)([C@@H](OC(=O)c4ccccc4)[C@H]21)C3(C)C.Cl (some centres unmarked)", "measure unit": "%", "value": 56.4}
{"molecule": "CC(=O)O[C@H]1C(=O)[C@@]2(C)[C@H]([C@H](OC(=O)c3ccccc3)[C@]3(O)C[C@H](OC(=O)[C@H](OC(=O)C(F)CCN(C)C)[C@@H](NC(=O)c4ccccc4)c4ccccc4)C(C)=C1C3(C)C)[C@]1(OC(C)=O)CO[C@@H]1C[C@@H]2O.CS(=O)(=O)O (some centres unmarked)", "measure unit": "%", "value": 63.7}
{"molecule": "CCN(C)C(C)C[C@H](CC(F)F)C(=O)O[C@@H](C(=O)O[C@H]1C[C@@]2(O)[C@@H](OC(=O)c3ccccc3)[C@@H]3[C@]4(OC(C)=O)CO[C@@H]4C[C@H](O)[C@@]3(C)C(=O)[C@H](O)C(=C1C)C2(C)C)[C@@H](NC(=O)OC(C)(C)C)c1ccccc1.Cl (some centres unmarked)", "measure unit": "%", "value": 43.6}

====

Conditions: SD rats, 5 mg/kg intravenous, 5 min after administration, LC-MS
Below, each of the molecules is paired with its reported mean concentration of docetaxel in the blood plasma value.
recorded metric: mean concentration of docetaxel in the blood plasma (ng/mL)

{"molecule": "CC(=O)O[C@@]12CO[C@@H]1C[C@H](O)[C@@]1(C)C(=O)[C@H](O)C3=C(C)[C@@H](OC(=O)[C@H](OC(=O)C(F)CCN(C)C)[C@@H](NC(=O)OC(C)(C)C)c4ccccc4)C[C@@](O)([C@@H](OC(=O)c4ccccc4)[C@H]21)C3(C)C.Cl (stereo partly shown) [Compound 06]", "value": 1621}
{"molecule": "CC(=O)O[C@@]12CO[C@@H]1C[C@H](O)[C@@]1(C)C(=O)[C@H](O)C3=C(C)[C@@H](OC(=O)[C@H](O)[C@@H](NC(=O)OC(C)(C)C)c4ccccc4)C[C@@](O)([C@@H](OC(=O)c4ccccc4)[C@H]21)C3(C)C [docetaxel, reference compound]", "value": 769}
{"molecule": "CC(=O)O[C@@]12CO[C@@H]1C[C@H](O)[C@@]1(C)C(=O)[C@H](O)C3=C(C)[C@@H](OC(=O)[C@H](OC(=O)[C@@H](F)CCN(C)C)[C@@H](NC(=O)OC(C)(C)C)c4ccccc4)C[C@@](O)([C@@H](OC(=O)c4ccccc4)[C@H]21)C3(C)C.Cl [Compound 05]", "value": 1387}
{"molecule": "CC(=O)OC12COC1CC(O)C1(C)C(=O)C(O)C3=C(C)C(OC(=O)C(OC(=O)C(F)CCN(C)C)C(NC(=O)OC(C)(C)C)c4ccccc4)CC(O)(C(OC(=O)c4ccccc4)C21)C3(C)C.Cl (stereo not shown) [Compound 04]", "value": 1506}
